Ref: patent US20240409557A1

# experimental system: human recombinant 15-PGDH (Homo sapiens)
# Sequence (P15428 whole entry): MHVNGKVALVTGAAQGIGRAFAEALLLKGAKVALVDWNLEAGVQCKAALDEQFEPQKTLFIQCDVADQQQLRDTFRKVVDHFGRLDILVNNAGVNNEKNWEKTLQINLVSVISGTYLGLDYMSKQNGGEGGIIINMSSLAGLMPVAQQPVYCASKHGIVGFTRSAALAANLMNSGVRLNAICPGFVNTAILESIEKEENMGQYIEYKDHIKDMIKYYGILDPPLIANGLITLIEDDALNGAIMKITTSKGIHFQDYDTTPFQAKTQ
# test: Recombinant 15-PGDH enzymatic inhibition assay (PGDH-Lumi, NADH signal)
# test settings: recombinant 15-PGDH; 15 min pre-incubation, 60 min reaction with PGE2 and NAD+, NADH signal
experimental endpoint: IC50 (nM)
Use nM as the unit, but write only the number.

compound: Cn1cc2cc(-c3ccc4ccc([C@@H](O)C5CCOCC5)cc4n3)cnc2n1 (single isomer, unassigned) [Compound D4S]
experimental system: human recombinant 15-PGDH (Homo sapiens)
number: 426

compound: Cn1nnc2cc(-c3ccc4cc([C@]5(O)C[C@@H](C(F)F)C5)sc4n3)cnc21 [Compound C76C]
experimental system: human recombinant 15-PGDH (Homo sapiens)
number: 0.832

compound: Cn1cc2cc(-c3ccc4sc([C@]5(O)C[C@@H](C(F)(F)F)C5)cc4n3)cnc2n1 [Compound C86C]
experimental system: human recombinant 15-PGDH (Homo sapiens)
number: 1.52

Consider O[C@H](c1cc2ccc(-c3cnc4[nH]nnc4c3)nc2s1)C1CCOCC1 (single isomer, unassigned) [Compound B44S] . Its measured IC50 is 133

Per the record, O[C@]1(c2cc3cnc(-c4cnc5nccn5c4)nc3s2)C[C@H](C(F)(F)F)C1 [Compound C124C] has IC50 of 2.01

Cn1cc2cc(-c3ccc4cc(C5(O)CCS(=O)(=O)CC5)sc4n3)cnc2n1 [Compound C8] has a reported IC50 of 67.7

Entry Cn1cc2cc(-c3ccc4cc([C@]5(O)C[C@@](C)(C#N)C5)sc4n3)cnc2n1 [Compound C63C] — recorded IC50 = 0.429

Reported IC50 ( O[C@H](c1cc2ccc(-c3cnc4[nH]ncc4c3)nc2s1)C1CC(F)(F)C1 (single isomer, unassigned) [Compound B47S] ) = 0.758

Quick note, IC50 for Cn1cc2cc(-c3ccc4cc(C5(O)CC6(CC(F)(F)C6)C5)sc4n3)cnc2n1 [Compound C27] landed at 0.379

Noted for Cn1cc2cc(-c3ccc4cc(C(O)C5CCOC5)sc4n3)cnc2n1 (centres unmarked) [Compound B19] : its IC50 reads 0.538

Sure, the documented IC50 for Cn1cc2cc(-c3cc(-c4ccnn4C)c4cc(C(O)C5CCC5)sc4n3)cnc2n1 (centres unmarked) [Compound B2] is 1.51

What the record says about Cn1cc2cc(-c3ccc4cc([C@]5(O)C[C@@]6(CCO6)C5)sc4n3)cnc2n1 (single isomer, unassigned) [Compound C56T] : IC50 is 1.18

// recorded IC50 for Cn1cc2cc(-c3ccc4cc([C@H](O)[C@H]5CC5(F)F)sc4n3)cnc2n1 (single isomer, unassigned) [Compound B85RR] : 0.47

Note to self: IC50 recorded for COCC[C@H](O)c1cc2ccc(-c3cnc4nn(C)cc4c3)nc2s1 (single isomer, unassigned) [Compound B29S] was 10.5

Briefly, IC50 measured for COCC[C@@H](O)c1cc2ccc(-c3cnc4nn(C)cc4c3)cc2s1 (single isomer, unassigned) [Compound B59R] : 4.75

CC(C)[C@H](O)c1cc2ccc(-c3cnc4nn(C)cc4c3)nc2s1 (single isomer, unassigned) [Compound B24S] yielded IC50 of 15.9

Record Cn1cc2cc(-c3ncc4cc(C5(O)CC6(CC(F)(F)C6)C5)sc4n3)cnc2n1 [Compound C116] , field IC50: 0.43

Noted for O[C@]1(c2cc3cnc(-c4cnc5nncn5c4)nc3s2)C[C@H](C(F)(F)F)C1 [Compound C129C] : its IC50 reads 3.5

Looking up CC(C)n1ncc2cc(-c3ccc4cc([C@H](O)C5CC(F)(F)C5)sc4n3)cnc21 (single isomer, unassigned) [Compound B65R] , I see its IC50 listed as 0.381
